Biological target: Adenosine receptor A3 (Homo sapiens) (UniProt P0DMS8)
Sequence (whole entry): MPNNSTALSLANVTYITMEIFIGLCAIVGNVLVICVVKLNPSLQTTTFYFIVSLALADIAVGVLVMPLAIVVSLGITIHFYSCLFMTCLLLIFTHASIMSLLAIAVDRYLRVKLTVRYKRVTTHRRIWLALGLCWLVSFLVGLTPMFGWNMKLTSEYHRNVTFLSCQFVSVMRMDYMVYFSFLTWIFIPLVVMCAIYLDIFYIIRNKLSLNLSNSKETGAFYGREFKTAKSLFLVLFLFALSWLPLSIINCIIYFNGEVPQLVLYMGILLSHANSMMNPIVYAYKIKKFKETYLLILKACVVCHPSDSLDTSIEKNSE
Assay: Displacement of [125I]AB-MECA from human adenosine A3 receptor expressed in CHO cells at 10 uM after 120 mins
Assay type: cell-based
Note: every record was labeled by where its inhibition sits among zone 1 = under 20%, zone 2 = from 20% up to 40%, zone 3 = 40% and over

Some entries whose results are on file:
SMILES NOTATION	SUBJECT OF TEST	QUALITATIVE LABEL
O=c1c2ncn3nc(-c4ccccc4)cc3c2c(-c2ccc(Cl)cc2)nn1Cc1ccccc1	Adenosine receptor A3 (Homo sapiens) (UniProt P0DMS8)	zone 2
CCc1nc2c(=O)n(Cc3ccccc3)nc(-c3ccsc3)c2c2cc(-c3ccccc3)nn12	Adenosine receptor A3 (Homo sapiens) (UniProt P0DMS8)	zone 2
CCc1nc2c(=O)n(Cc3ccccc3)nc(-c3cccs3)c2c2cc(-c3ccccc3)nn12	Adenosine receptor A3 (Homo sapiens) (UniProt P0DMS8)	zone 2
Cc1nc2c(=O)n(Cc3ccccc3)nc(C3CCCCC3)c2c2cc(-c3ccccc3)nn12	Adenosine receptor A3 (Homo sapiens) (UniProt P0DMS8)	zone 2
S=c1c2ncn3nc(-c4ccccc4)cc3c2c(C2CCCC2)nn1Cc1ccccc1	Adenosine receptor A3 (Homo sapiens) (UniProt P0DMS8)	zone 3
Cc1nc2c(=O)n(Cc3ccccc3)nc(-c3ccsc3)c2c2cc(-c3ccccc3)nn12	Adenosine receptor A3 (Homo sapiens) (UniProt P0DMS8)	zone 2

-- ask Given O=c1c2ncn3nc(-c4ccccc4)cc3c2c(-c2ccsc2)nn1Cc1ccccc1 , name the class its inhibition places it in.
-- reply zone 2

-- ask Given O=c1c2ncn3nc(-c4ccccc4)cc3c2c(-c2cccs2)nn1Cc1ccccc1 , name the class its inhibition places it in.
-- reply zone 1

-- ask Given Cc1nc2c(=O)n(Cc3ccccc3)nc(-c3cccs3)c2c2cc(-c3ccccc3)nn12 , name the class its inhibition places it in.
-- reply zone 1

---

target: Adenosine receptor A2a (Homo sapiens, UniProt P29274); test: Displacement of [3H]NECA from human adenosine A2A receptor expressed in CHO cells at 10 uM after 120 mins; assay type: cell-based
Sequence (P29274 whole entry): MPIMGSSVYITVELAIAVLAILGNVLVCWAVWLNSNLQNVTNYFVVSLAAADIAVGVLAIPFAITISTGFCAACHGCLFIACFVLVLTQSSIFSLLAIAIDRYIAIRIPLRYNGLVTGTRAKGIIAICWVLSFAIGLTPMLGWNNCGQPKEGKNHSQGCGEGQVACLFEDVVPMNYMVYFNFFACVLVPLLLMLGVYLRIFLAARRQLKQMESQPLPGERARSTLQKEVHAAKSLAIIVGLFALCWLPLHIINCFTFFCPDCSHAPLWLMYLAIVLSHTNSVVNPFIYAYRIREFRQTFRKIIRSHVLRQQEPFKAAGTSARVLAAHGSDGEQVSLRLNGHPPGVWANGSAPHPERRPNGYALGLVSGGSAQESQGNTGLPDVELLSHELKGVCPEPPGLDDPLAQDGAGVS
Listed here are compounds together with their documented inhibition.
Your answer should be a plain number; it is taken to be in %.

SMILES NOTATION	inhibition, %
Cc1nc2c(=S)n(Cc3ccccc3)nc(C3CCCC3)c2c2cc(-c3ccccc3)nn12	18
CCc1nc2c(=O)n(Cc3ccccc3)nc(-c3ccc(Cl)cc3)c2c2cc(-c3ccccc3)nn12	10

-- ask Recorded inhibition for Cc1nc2c(=O)n(Cc3ccccc3)nc(C3CCCCC3)c2c2cc(-c3ccccc3)nn12 , please?
-- reply 7

-- ask Recorded inhibition for Cc1nc2c(=O)n(Cc3ccccc3)nc(-c3ccc(Cl)cc3)c2c2cc(-c3ccccc3)nn12 , please?
-- reply 28

-- ask Recorded inhibition for CCc1nc2c(=S)n(Cc3ccccc3)nc(C3CCCC3)c2c2cc(-c3ccccc3)nn12 , please?
-- reply 35

-- ask Recorded inhibition for CCc1nc2c(=O)n(Cc3ccccc3)nc(-c3ccsc3)c2c2cc(-c3ccccc3)nn12 , please?
-- reply 41

-- ask Recorded inhibition for Cc1nc2c(=O)n(Cc3ccccc3)nc(C3CCCC3)c2c2cc(-c3ccccc3)nn12 , please?
-- reply 53

-- ask Recorded inhibition for S=c1c2ncn3nc(-c4ccccc4)cc3c2c(C2CCCCC2)nn1Cc1ccccc1 , please?
-- reply 8

-- ask Recorded inhibition for Cc1nc2c(=O)n(Cc3ccccc3)nc(-c3ccsc3)c2c2cc(-c3ccccc3)nn12 , please?
-- reply 57

-- ask Recorded inhibition for Cc1nc2c(=S)n(Cc3ccccc3)nc(C3CCCCC3)c2c2cc(-c3ccccc3)nn12 , please?
-- reply 0

-- ask Recorded inhibition for CCc1nc2c(=S)n(Cc3ccccc3)nc(C3CCCCC3)c2c2cc(-c3ccccc3)nn12 , please?
-- reply 0

---

target: Adenosine receptor A2a (Homo sapiens); assay: Displacement of [3H]NECA from human adenosine A2A receptor expressed in CHO cells at 10 uM after 120 mins; format: cell-based
Listed here are molecules together with their documented inhibition.
Your answer should be a plain number; it is taken to be in %.

SMILES NOTATION	inhibition (%)
S=c1c2ncn3nc(-c4ccccc4)cc3c2c(C2CCCC2)nn1Cc1ccccc1	37

-- ask # get_value(readout= inhibition, system= Adenosine receptor A2a (Homo sapiens)) for CCc1nc2c(=O)n(Cc3ccccc3)nc(-c3cccs3)c2c2cc(-c3ccccc3)nn12
-- reply 65

-- ask # get_value(readout= inhibition, system= Adenosine receptor A2a (Homo sapiens)) for O=c1c2ncn3nc(-c4ccccc4)cc3c2c(C2CCCCC2)nn1Cc1ccccc1
-- reply 56

-- ask # get_value(readout= inhibition, system= Adenosine receptor A2a (Homo sapiens)) for O=c1c2ncn3nc(-c4ccccc4)cc3c2c(-c2ccc(Cl)cc2)nn1Cc1ccccc1
-- reply 56

-- ask # get_value(readout= inhibition, system= Adenosine receptor A2a (Homo sapiens)) for CCc1nc2c(=O)n(Cc3ccccc3)nc(C3CCCCC3)c2c2cc(-c3ccccc3)nn12
-- reply 0

---

Biological target: Adenosine receptor A3 (Homo sapiens, UniProt P0DMS8)
Sequence (P0DMS8 whole entry): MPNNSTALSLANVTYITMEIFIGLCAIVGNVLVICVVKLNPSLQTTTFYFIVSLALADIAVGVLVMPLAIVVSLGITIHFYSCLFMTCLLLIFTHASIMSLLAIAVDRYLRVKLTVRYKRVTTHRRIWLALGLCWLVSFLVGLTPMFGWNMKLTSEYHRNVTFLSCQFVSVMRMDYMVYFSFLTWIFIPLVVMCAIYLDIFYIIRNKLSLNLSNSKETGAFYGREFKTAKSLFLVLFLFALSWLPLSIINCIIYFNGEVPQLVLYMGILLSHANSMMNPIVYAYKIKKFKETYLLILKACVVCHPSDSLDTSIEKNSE
Test: Displacement of [125I]AB-MECA from human adenosine A3 receptor expressed in CHO cells after 120 mins
Format: cell-based
ENDPOINT NAME: Ki (µM)
Your answer should be a plain number; it is taken to be in µM.

SMILES NOTATION	SUBJECT OF TEST	Ki [µM]
O=c1c2ncn3nc(-c4ccccc4)cc3c2c(C2CCCC2)nn1Cc1ccccc1	Adenosine receptor A3 (Homo sapiens, UniProt P0DMS8)	0.064

-- ask Recorded Ki for O=c1c2ncn3nc(-c4ccccc4)cc3c2c(C2CCCCC2)nn1Cc1ccccc1 , please?
-- reply 0.308

---

Listed here are molecules together with their documented inhibition.
Biological target: Adenosine receptor A3 (Homo sapiens)
Sequence (whole entry): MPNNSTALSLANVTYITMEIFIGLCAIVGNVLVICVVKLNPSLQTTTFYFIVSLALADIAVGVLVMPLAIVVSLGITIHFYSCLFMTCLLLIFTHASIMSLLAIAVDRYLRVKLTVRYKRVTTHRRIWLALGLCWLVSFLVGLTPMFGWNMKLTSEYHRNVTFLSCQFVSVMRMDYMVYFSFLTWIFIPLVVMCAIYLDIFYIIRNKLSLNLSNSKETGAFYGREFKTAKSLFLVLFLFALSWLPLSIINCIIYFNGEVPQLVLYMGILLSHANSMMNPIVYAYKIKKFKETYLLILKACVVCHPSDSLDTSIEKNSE
Assay: Displacement of [125I]AB-MECA from human adenosine A3 receptor expressed in CHO cells at 10 uM after 120 mins
Assay type: cell-based
Your answer should be a plain number; it is taken to be in %.

A selection of reference data follows.
SMILES NOTATION	SUBJECT OF TEST	ENDPOINT NAME	VALUE UNIT	TEST VALUE
Cc1nc2c(=O)n(Cc3ccccc3)nc(C3CCCC3)c2c2cc(-c3ccccc3)nn12	Adenosine receptor A3 (Homo sapiens)	inhibition	%	41
CCc1nc2c(=O)n(Cc3ccccc3)nc(C3CCCCC3)c2c2cc(-c3ccccc3)nn12	Adenosine receptor A3 (Homo sapiens)	inhibition	%	40

-- ask # get_value(readout= inhibition, system= Adenosine receptor A3 (Homo sapiens)) for Cc1nc2c(=S)n(Cc3ccccc3)nc(C3CCCC3)c2c2cc(-c3ccccc3)nn12
-- reply 13

-- ask # get_value(readout= inhibition, system= Adenosine receptor A3 (Homo sapiens)) for O=c1c2ncn3nc(-c4ccccc4)cc3c2c(-c2cccnc2)nn1Cc1ccccc1
-- reply 21

-- ask # get_value(readout= inhibition, system= Adenosine receptor A3 (Homo sapiens)) for Cc1nc2c(=S)n(Cc3ccccc3)nc(C3CCCCC3)c2c2cc(-c3ccccc3)nn12
-- reply 30

-- ask # get_value(readout= inhibition, system= Adenosine receptor A3 (Homo sapiens)) for S=c1c2ncn3nc(-c4ccccc4)cc3c2c(C2CCCCC2)nn1Cc1ccccc1
-- reply 31

-- ask # get_value(readout= inhibition, system= Adenosine receptor A3 (Homo sapiens)) for CCc1nc2c(=S)n(Cc3ccccc3)nc(C3CCCC3)c2c2cc(-c3ccccc3)nn12
-- reply 24

-- ask # get_value(readout= inhibition, system= Adenosine receptor A3 (Homo sapiens)) for Cc1nc2c(=O)n(Cc3ccccc3)nc(-c3ccc(Cl)cc3)c2c2cc(-c3ccccc3)nn12
-- reply 25

-- ask # get_value(readout= inhibition, system= Adenosine receptor A3 (Homo sapiens)) for CCc1nc2c(=O)n(Cc3ccccc3)nc(C3CCCC3)c2c2cc(-c3ccccc3)nn12
-- reply 43

-- ask # get_value(readout= inhibition, system= Adenosine receptor A3 (Homo sapiens)) for CCc1nc2c(=S)n(Cc3ccccc3)nc(C3CCCCC3)c2c2cc(-c3ccccc3)nn12
-- reply 42

-- ask # get_value(readout= inhibition, system= Adenosine receptor A3 (Homo sapiens)) for CCc1nc2c(=O)n(Cc3ccccc3)nc(-c3ccc(Cl)cc3)c2c2cc(-c3ccccc3)nn12
-- reply 51
